system: Pseudomonas sp.; assay: Antimicrobial activity against Pseudomonas sp. by cup plate diffusion method; type: functional
Some compounds, each annotated with its measured MIC.

Solved entries (count: 2):
N#Cc1ccc(C2=NO[C@H]3[C@@H]2[C@@H](C(=O)O)C[C@H]3C(=O)O)cc1
> 100 µg/mL
COc1ccc(C2=NO[C@H]3[C@@H]2[C@@H](C(=O)O)C[C@H]3C(=O)O)cc1
> 100 µg/mL

[Q] Report measured MIC; entry is `O=C(O)[C@H]1C[C@@H](C(=O)O)[C@H]2ON=C(c3ccccc3Cl)[C@H]21`
[A] > 100 µg/mL

[Q] Report measured MIC; entry is `COc1ccc(C2=NO[C@@H]3[C@H](CO)C[C@H](CO)[C@H]23)cc1OC`
[A] 1.2 µg/mL

[Q] Report measured MIC; entry is `O=C(O)[C@H]1C[C@@H](C(=O)O)[C@H]2ON=C(c3ccc(F)cc3)[C@H]21`
[A] 7.8 µg/mL

[Q] Report measured MIC; entry is `COC(=O)[C@H]1C[C@@H](C(=O)OC)[C@H]2ON=C(c3ccc(Cl)cc3)[C@H]21`
[A] > 100 µg/mL

Data origin, for the record: ChEMBL document CHEMBL3739426
